tested on: K4 kissing-loop RNA reporter; assay: apparent KD of K4 kissing-loop reporter; higher = weaker reporter binding; details: Eterna round: R107; input ligand: tryptophan 2.4 mM;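 note: bound reporter read as fluorescence of individual clusters on recovered sequencing chips by microscopy, with normalized cluster intensities fitted with a binding model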
y means recorded apparent KD of K4 kissing-loop reporter is 300 nM or above; n means it is below 300 nM.

# polymer_sequence, assigned_label
rows = [
    ("AGGCACGAGCAAGGAUAUCGAGUAGAGUGAUGUUCUGCCUGGGUUGGCUCGCAAGGGCCUUCCCAGCGAGAAGGUGCUCGUGCCU [#2 Same State - FMN A Attempt #17 (HarryS)]", "y"),
    ("AGGAUGUAGUGAUGUUAUAUAAGAAGUAAACGAGGACCGGUACGGCCGCCACUCGAAGCGGCUACUAGCGCGCGCGCGCGCGCGC [ExTryptoA.Ca]", "n"),
    ("AAAUAUUCGAGUGAUGUUCGAUAAAUAUCAGAGGAUAUGCUUAAAAGCAGAAGGCUGUAUUUCUAUUUGUUAUGUAAUUUUAUAA [JR_SSFMNA_Sub021]", "n"),
    ("UGUACCGAGUCAGGAUAUGGCGUCGAAAGACGAAUCCUAGUGAUGUUAGCGAUCUGCGAAAGCAGUCCAGAAGGGACUUGGUACU [FmnBS 26 C50]", "n"),
    ("CUCGAGUGAUGUUCGACGCGUCCGUACGAUACCAGCGUAGACCGUCGCCCUUGGCAGCGUGAUGCAGCCCGAAAGUCCGGUUCCU [theeternabot_sameState_KL_Theo_A_26]", "y"),
]

Threshold query (apparent KD of K4 kissing-loop reporter >= 300 nM) on UGGGUGUAGUGAUGUUAUAUAGAGAGUGAUACCAGUUUAGAGAGGAACCCUUGGCAGCAUAGAAGAGUAUCAUUGGAGGAGGAGG [ExTheophyl.Aw]
y

###

system: MS2 coat protein; assay: apparent KD of MS2 coat protein; higher = weaker reporter binding; settings: Eterna round: R107; input ligand: theophylline 2 mM
test_readout: apparent KD of MS2 coat protein (µM)
Could you give me the number in µM? Just the number is fine.

Worked examples, 2 sequences total:
# polymer_sequence, tested_target, reading_unit, apparent KD of MS2 coat protein
rows = [
    ("GGGUCGGGCGCGGCCGCCACUGCGGUGAUGUGACAUGAGGAUCACCCAUGUUGUCAUGUGGCACAUAGGACCGGGCGCCCGGCCC [#1 Exclusion - Tryptophan B Attempt #8 (HarryS)]", "MS2 coat protein", "µM", 0.0347),
    ("UAUCGUCAGACGGCCGCCACUAGAACAUGAGGAUCACCCAUGUAAGUGGCCGGUCUCCUCAUGACUAGGACCGGGUCUGACGAAU [(Trp1)-(Ms2)-(T)'-(M)'-(Trp2)_Design18]", "MS2 coat protein", "µM", 0.0109),
]

# get_value(readout='apparent KD of MS2 coat protein', item= GCUAGGUCAUCGGCCGCCACUAACGACGGUUCGAACAUGAGGAUCACCCAUGUGCCACAUGCGCAUAGGACCGGGAUGACCUAGC [SSTB NP+V+V2 #6] )
0.0212

# get_value(readout='apparent KD of MS2 coat protein', item= UCUGCCGCGGCUCCGAUCCUCCUGUAGUUCCGAGGACCGGUACGGCCGCCACUCGUAGCACAUGAGGAUCACCCAUGUCUUGCGG [Tiqurabira] )
0.013

# get_value(readout='apparent KD of MS2 coat protein', item= CUAAGAGCGGCGGCCGCCACUGGUAACCAAGAGGCGGAGCCUCUGACAUGAGGAUCACCCAUGUUCAGGACCGGGUCGUCUUAGA [#07 Same State - Tryptophan B] )
0.0185

###

tested on: MS2 coat protein; assay: apparent KD of MS2 coat protein; designed switch direction (-1 OFF switch, 1 ON switch): 1; higher = weaker reporter binding; settings: input ligand: microRNA oligo, concentration not stated
Criterion met means recorded apparent KD of MS2 coat protein is 50 nM or above; Criterion not met means it is below 50 nM.

Threshold query (apparent KD of MS2 coat protein >= 50 nM) on GUGCUCGUGUGAGGAUAUGCCGCCGUUUCGGCUGCAGAAGGUGCUACGUUACAUGAGGAUCACCCAUGUCUCUGUUGUUUCGUG [salish99_SSNG1_r04_943] (Eterna round: R96, puzzle: Same State NG 1)
Criterion not met

Threshold query (apparent KD of MS2 coat protein >= 50 nM) on GGAGCCGGCCUAGGAUAUUUCAUAAAAAUACAUGAGGAUCACCCAUGUAGGCCAGAAGGCCUUGGGAAGAAGGAGGUCGGCUCC [Loop Effect - U29] (Eterna round: R96, puzzle: Same State NG 2)
Criterion not met

Threshold query (apparent KD of MS2 coat protein >= 50 nM) on GUGGAGAAUUAAGGAUAUCGAGUCAAGAUGUUAAACAUGAGGAUCACCCAUGUGGGUUGCGGUAUCGAGAAGGUAAAUUACGGG [salish99_SSNG2_r04_504] (Eterna round: R96, puzzle: Same State NG 2)
Criterion not met

Threshold query (apparent KD of MS2 coat protein >= 50 nM) on AGAAAACAUGAGGAUCACCCAUGUAGAAAUAUGGGAGGAUAUACAAAGACGAAAGUCAGAGUAGAAGGCCUAAAAA [salish99-SS1-085] (Eterna round: R96, puzzle: Same State 1)
Criterion not met

Threshold query (apparent KD of MS2 coat protein >= 50 nM) on AGACACAUGAGGAUCACCCAUGUUACGAGCUUAGCUCGGACACAGGAUAUCCGGUCCUAGAGACCGGAGAAGGGUGCCUGAUAA [Zara MOD3] (Eterna round: R96, puzzle: Same State NG 3)
Criterion met

Threshold query (apparent KD of MS2 coat protein >= 50 nM) on UGUUGUAUUACAGGAUAUCUAGUAUUUUUUUUUAGAGAAGGGUAUUCACAUGAGGAUCACCCAUGUAUAUACGAGGAAGUUGUG [JMF's solution 46] (Eterna round: R96, puzzle: Same State NG 1)
Criterion not met

Threshold query (apparent KD of MS2 coat protein >= 50 nM) on CCUGCGAUAAGCGAGCGAACAUGAGGAUCACCCAUGUGGCGGCAGGAUAUGGGUGACCCAGCGACUCAGAAGGGCCGAAGCUAA [Eternabot solution 8] (Eterna round: R96, puzzle: Same State NG 3)
Criterion not met

Threshold query (apparent KD of MS2 coat protein >= 50 nM) on AUUACUAACAUAGGAUAUCAUGCGAAAAUUGCGUGAGAAGGGUGGACGCUGUCAUUCACGGAGGACAUGAGGAUCACCCAUGUC [SameState NG1 #72] (Eterna round: R96, puzzle: Same State NG 1)
Criterion met

Threshold query (apparent KD of MS2 coat protein >= 50 nM) on AACCAGAGAAAACAACUCUGACAUGAGGAUCACCCAUGUACACAGGAUAUCAGCCCGAAAAGGGCUGAGAAGGGUGGCCGAGUG [Beveat] (Eterna round: R96, puzzle: Same State NG 3)
Criterion not met

###

test system: MS2 coat protein; test: apparent KD of MS2 coat protein; designed switch direction (-1 OFF switch, 1 ON switch): -1; higher = weaker reporter binding; details: Eterna round: R95; input ligand: microRNA oligo, concentration not stated
test_readout: apparent KD of MS2 coat protein (nM)
Could you give me the number in nM? Just the number is fine.

Worked examples, 4 sequences total:
# polymer_sequence, tested_target, reading_unit, apparent KD of MS2 coat protein
data = [
    ("CUCUUGUGAGGAUAUCAGGUGUGCUAGCGUACUGGUACAUCUGAGAAGGCACAUGAGGAUCACCCAUGUUUCUU [JL-ex4-3.21 Brourd mod] (puzzle: Exclusion 4)", "MS2 coat protein", "nM", 78.1),
    ("UUCCUACAUGAGGAUCACCCAUGUCAGGAUAUCUCCUCACCGCGAAUGGGCAGUGAAUAGAGAAGGGACAGGAA [Aner] (puzzle: Exclusion 1)", "MS2 coat protein", "nM", 13.5),
    ("AAUAAUAAGGAGGAUAUCGUAUCGGAGACGAUACGAGAAGGCUUAACAUGAGGAUCACCCAUGUUCCUCAAUAA [Mat - Exclusion 6 - Eli Mod - D89] (puzzle: Exclusion 6)", "MS2 coat protein", "nM", 35.2),
    ("CUAUUCCGAGGAUAUACAUGAGGAUCACCCAUGUCGGGCCUCCGCGUUUAGCGCCUCAGUAGAAGGCGGGUUUC [JL Riri mod 2] (puzzle: Exclusion 3)", "MS2 coat protein", "nM", 17.2),
]

# get_value(readout='apparent KD of MS2 coat protein', item= GAUCCACAUGAGGAUCACCCAUGUGAGGAUAUGAUACUAUGUACUUCGGUACAUAGUAUCAGAAGGCACAUUGA [Ex1-3: 45] (puzzle: Exclusion 1) )
136

# get_value(readout='apparent KD of MS2 coat protein', item= AAAAGAAGUGUUAGGAUAUGUGGAAGUAGAAAGACACAGAAGGGACAUGAGGAUCACCCAUGUGGCCAAAGAAC [Vecedies] (puzzle: Brourd's mod of Exclusion 4) )
15.6

# get_value(readout='apparent KD of MS2 coat protein', item= UUAUACGCUGAGGAUAUUAUCACUGAGAGGUGAUGAGAAGGCGGUACAUGAGGAUCACCCAUGUCUAUGGGCAG [Ex-6 Malc#22] (puzzle: Exclusion 6) )
237

# get_value(readout='apparent KD of MS2 coat protein', item= GAUUAUGCGAGCUUUAGGGACAUGAGGAUCACCCAUGUUCGUCUUAUUGGUCUAGAUACACUAACAUACCUAAAUCU [JMF 12] (puzzle: Sensor v3, turn-off variant 1) )
21.4

# get_value(readout='apparent KD of MS2 coat protein', item= AAUACAAUAAUUAAAGAGAUAGUACAUUAUACAAGUGAAACAUGAGGAUCACCCAUGUCCUCAUUUGCUCGUCUAAU [Hunting Buffalo with a BB Gun] (puzzle: Sensor v3, turn-off variant 2) )
142

# get_value(readout='apparent KD of MS2 coat protein', item= CUGGUGUGAGGAUAUCAGGGCGCGCCCAAGGGCACGCCAAAUGAGAAGGCACAUGAGGAUCACCCAUGUGGGAC [Erzala] (puzzle: Exclusion 4) )
31.4

# get_value(readout='apparent KD of MS2 coat protein', item= GCAGGAUAAGUGAGGAUAUACCUAUGGAUACAUAGGUAGAAGGCACAUGAGGAUCACCCAUGUUCCUAACCUGC [Fiskers BMX 4 - 68] (puzzle: Brourd's mod of Exclusion 4) )
12.8
